Source listed as PubChem BioAssay (NCI).

Reported growth inhibition values for the following compounds.
Assay: NCI Yeast Anticancer Drug Screen. Data for the rad50 strain (AID 155);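 also: 0% = growth of vehicle-only cultures of the same strain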
Details: S. cerevisiae rad50 strain growth inhibition; at 50.0 µM; active compounds read high
The panel holds about 79,000 compounds, 15% with a hit somewhere; the sample as a whole holds those more often.
Answer format: numeric, % implied, no suffix.

These solved cases illustrate the format of a correct answer.
[[record]]
compound = "C=C(C)c1nc(N)nc(-c2cccc(-c3nc(N)nc(C(=C)C)n3)c2)n1"
measure = "growth inhibition"
quantity_unit = "%"
result_number = -8.2

[[record]]
compound = "CCOC(=O)/C(F)=C/c1cccc([N+](=O)[O-])c1"
measure = "growth inhibition"
quantity_unit = "%"
result_number = 13.4

[[record]]
compound = "N#CCCN(CCC#N)c1ccc(C(=O)NN)cc1"
measure = "growth inhibition"
quantity_unit = "%"
result_number = -18.1

[[record]]
compound = "Cc1cn(C2CC(N)C(C(=O)NCC(=O)O)O2)c(=O)[nH]c1=O (stereo not given)"
measure = "growth inhibition"
quantity_unit = "%"
result_number = -19.9

[[record]]
compound = "O=C(c1nc2ccc(Cl)cc2[nH]c1=O)C(O)c1ccco1 (stereo not given)"
measure = "growth inhibition"
quantity_unit = "%"
result_number = -21.4

[[record]]
compound = "CC1=C[P+](c2ccccc2)(c2ccccc2)C=C(C)O1"
measure = "growth inhibition"
quantity_unit = "%"
result_number = 8.9

[[record]]
compound = "CCCN1C(=O)CN(S(=O)(=O)c2ccc(Cl)cc2)C1=O"
measure = "growth inhibition"
quantity_unit = "%"
result_number = -1.1

[[record]]
compound = "C/C=C/C(O)CCCC (stereo not given)"
measure = "growth inhibition"
quantity_unit = "%"
result_number = -13.2


Measured growth inhibition of CCOC(=O)c1cc2ccccc2nc1N : 0

Note to self: growth inhibition recorded for OC1CCCN(CCNN2CCCC2)C1 (stereo not given) was 17.9
